tested on: Plasmodium falciparum; assay: Primary screen in NF54 nanoGlo assay, in single point, at 2uM, 72h; a lower Z score goes with more inhibition; type: functional, Erythrocyte; settings: timepoint 72 hour
In all, about 150,000 compounds went through this assay and about 540 (0.36%) showed an effect of 50% or more. Only a selection was taken, and strong results are over-represented in it overall.
Threshold check on Z score: strictly below 0.5 is true (1); on or above 0.5 is false (0).

Look over these answered cases.
Compound	Group
COCc1ccc(CNCc2cc3cc(Cl)c(Cl)cc3[nH]2)cc1	false (0)
CCc1c(C)nc(C)nc1N1CC[C@H](NC(=O)c2cc(C)on2)[C@@H](O)C1	true (1)
Cn1nccc1/C=C1\CC2C3CCc4cc(O)ccc4C3CCC2(C)C1O (stereo unspecified)	true (1)
CC1=CC(=[N+](CCO)CCO)C=C/C1=C(\c1ccc(N(CCO)CCO)cc1C)c1ccccc1Cl	true (1)
Cc1nc(N2C(=O)N(C)C3(CCCC3)C2=O)oc1C	true (1)

Incoming: is_below(Z score, 0.5) for COc1ccc(C)c2sc(N(CCCn3ccnc3)C(=O)Cc3ccc(F)cc3)nc12 ?
Outgoing: true (1)

Incoming: is_below(Z score, 0.5) for COc1ccc(-c2cc3n(n2)CCC(=O)N3Cc2ccc(C(=O)NCCN3CCCCC3)cc2)cc1 ?
Outgoing: true (1)

Incoming: is_below(Z score, 0.5) for CCCC(O)(CCC)CC(=O)N1CCN(C(=O)OCC)CC1 ?
Outgoing: false (0)
